FYI, the data here is from patent US20250171437A1.

Molecular target: human PAH with the R408W mutation (A375 R408W cells) (Homo sapiens, UniProt P00439, R408W)
Construct: expressed in transfected cells
Sequence (P00439 whole entry R408W): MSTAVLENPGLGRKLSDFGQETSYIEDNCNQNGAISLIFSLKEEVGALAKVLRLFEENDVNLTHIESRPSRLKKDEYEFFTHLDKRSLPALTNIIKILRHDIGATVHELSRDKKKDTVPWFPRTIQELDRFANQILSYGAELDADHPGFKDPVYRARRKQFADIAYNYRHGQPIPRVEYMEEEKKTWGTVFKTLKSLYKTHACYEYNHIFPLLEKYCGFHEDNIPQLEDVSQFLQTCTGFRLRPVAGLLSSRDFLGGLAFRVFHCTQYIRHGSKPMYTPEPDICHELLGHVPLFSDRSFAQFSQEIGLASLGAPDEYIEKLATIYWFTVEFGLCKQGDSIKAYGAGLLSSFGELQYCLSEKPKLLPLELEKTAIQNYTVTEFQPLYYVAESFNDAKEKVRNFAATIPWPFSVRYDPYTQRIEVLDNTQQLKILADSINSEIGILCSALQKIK
Assay: Cell Based Phenylalanine Flux Assay
Conditions: A375 R408W cells; 24 hrs with compound, then 20 μM sepiapterin and 800 μM 13C9,15N-Phenylalanine for 4 hours; 13C-Tyrosine by LC-MS; average where tested multiple times
ASSAY ENDPOINT: AC50

Challenge: Which AC50 is listed for Cc1cccc2oc([C@@H]3c4nc[nH]c4CCN3C(=O)c3nc(C(F)F)nn3C)nc12 ?
Response given: ≤ 0.5 µM

Challenge: Fill in the blank: the reported AC50 of O=C(c1oc(C2(O)CCC2)nc1C(F)F)N1CCc2[nH]cnc2[C@@H]1c1nc2cc(F)ccc2o1 is ____.
Response given: 1 to 5 µM

Challenge: Look up AC50 for this compound: CC(C)(O)c1nc(Br)c(C(=O)N2CCc3[nH]cnc3[C@H]2c2nc3c(F)cccc3o2)o1
Response given: ≤ 0.5 µM

Challenge: Fill in the blank: the reported AC50 of Cn1cnc(-c2nc(C(F)F)c(C(=O)N3CCc4[nH]cnc4[C@@H]3c3nc4cc(F)ccc4o3)o2)c1 is ____.
Response given: 1 to 5 µM

Challenge: Reported AC50 for O=C(c1oc(C2(O)CC2)nc1C(F)F)N1CCc2[nH]cnc2[C@@H]1c1nc2c(F)cccc2o1 : what is it?
Response given: 1 to 5 µM

Challenge: What value of AC50 has been recorded for this entry: O=C(c1oc(-c2ncccn2)nc1C(F)F)N1CCc2[nH]cnc2[C@@H]1c1nc2cccc(F)c2o1
Response given: ≤ 0.5 µM

Challenge: # query: AC50 of entry Cc1ncoc1C(=O)N1CCc2[nH]cnc2[C@@H]1c1nc2c(F)ccc(F)c2o1
Response given: 1 to 5 µM

Challenge: Consider the compound shown here: O=C(c1nnc(-c2cnn(C3CCC3)c2)o1)N1CCc2[nH]cnc2[C@@H]1c1nc2c(F)ccc(F)c2o1 What is its recorded AC50?
Response given: 0.5 to 1 µM

Challenge: Item Cc1ccc2oc([C@@H]3c4nc[nH]c4CCN3C(=O)c3ccnn3C(F)F)nc2c1 has what recorded AC50?
Response given: ≤ 0.5 µM

Challenge: AC50 lookup needed for Cc1cccc2nc([C@@H]3c4nc[nH]c4CCN3C(=O)c3cc(C(F)F)nn3C)oc12 , thanks.
Response given: ≤ 0.5 µM

Challenge: Fill in: AC50 of Cc1cccc2nc([C@@H]3c4nc[nH]c4CCN3C(=O)c3nnc(-c4ccn(C(F)F)n4)o3)oc12 is ___
Response given: 0.5 to 1 µM

Challenge: Report AC50 for O=C(c1cnn2cc(N3CCOCC3)ccc12)N1CCc2[nH]cnc2[C@H]1c1nc2c(F)cccc2o1 please.
Response given: 0.5 to 1 µM

Challenge: // query AC50 value for entry Cc1cccc2nc([C@@H]3c4nc[nH]c4CCN3C(=O)c3nnc(-c4cnn(C(F)F)c4)o3)oc12
Response given: 0.5 to 1 µM

Challenge: Using the record for CC(C)(O)c1ncc(C(=O)N2CCc3[nH]cnc3[C@@H]2c2nc3c(F)cccc3o2)o1 , report its AC50.
Response given: 1 to 5 µM

Challenge: Which AC50 is reported for this compound? Cc1ccc2oc([C@H]3c4nc[nH]c4CCN3C(=O)c3oc(C(C)(C)O)nc3C(F)F)nc2c1
Response given: 0.5 to 1 µM

Challenge: Reported AC50 for CC(C)(O)c1nc(C(F)(F)F)c(C(=O)N2CCc3[nH]cnc3[C@@H]2c2nc3cccc(F)c3o2)o1 : what is it?
Response given: ≤ 0.5 µM

Challenge: May I ask what AC50 has been recorded for CC(C)(O)c1nc(C(F)F)c(C(=O)N2CCc3[nH]cnc3[C@H]2c2nc3ccccc3o2)o1 ?
Response given: ≤ 0.5 µM

Challenge: Quick one: AC50 of O=C(c1cnco1)N1CCc2[nH]cnc2[C@H]1c1nc2cccc(F)c2o1 ?
Response given: 0.5 to 1 µM

Challenge: Item under review: O=C(c1ocnc1CC(F)F)N1CCc2[nH]cnc2[C@@H]1c1nc2ccccc2o1 . Reported AC50?
Response given: 0.5 to 1 µM

Challenge: Requested field: AC50. Item: Cc1cccc2oc([C@H]3c4nc[nH]c4CCN3C(=O)c3cnco3)nc12
Response given: 1 to 5 µM

Challenge: Sample Cn1cncc1-c1nc(C(F)F)c(C(=O)N2CCc3[nH]cnc3[C@H]2c2nc3ccccc3o2)o1 — what was its AC50?
Response given: ≤ 0.5 µM

Challenge: What value of AC50 has been recorded for this entry: O=C(c1ocnc1C(F)(F)F)N1CCc2[nH]cnc2[C@H]1c1nc2c(F)ccc(F)c2o1
Response given: ≤ 0.5 µM

Challenge: Can you share its AC50? I mean this compound: COc1ccc2oc([C@H]3c4nc[nH]c4CCN3C(=O)c3ccnn3C(F)F)nc2c1
Response given: 1 to 5 µM

Challenge: Could you share which AC50 value was measured for O=C(c1cnn2cc(N3CCC4(CC3)CC4)ccc12)N1CCc2[nH]cnc2[C@@H]1c1nc2c(F)cccc2o1 ?
Response given: 1 to 5 µM

Challenge: What value of measured AC50 is listed for CC(C)(O)c1nc(C(F)F)c(C(=O)N2CCc3[nH]cnc3[C@@H]2c2nc3c(OC(F)(F)F)cccc3o2)o1 ?
Response given: ≤ 0.5 µM

Challenge: Would you mind telling me what AC50 value was observed for O=C(c1ccnn1C(F)(F)F)N1CCc2[nH]cnc2[C@@H]1c1nc2c(F)cccc2o1 ?
Response given: 1 to 5 µM

Challenge: Need AC50, item CC(F)(F)c1ncoc1C(=O)N1CCc2[nH]cnc2[C@H]1c1nc2c(F)cccc2o1
Response given: ≤ 0.5 µM

Challenge: AC50 for CC(C)(C)c1nnc(C(=O)N2CCc3[nH]cnc3[C@H]2c2nc3c(F)ccc(F)c3o2)o1 ?
Response given: ≤ 0.5 µM

Challenge: Return reported AC50; argument: O=C(c1nnc(-c2ccc(F)cc2)o1)N1CCc2[nH]cnc2[C@H]1c1nc2cc(F)ccc2o1
Response given: ≤ 0.5 µM

Challenge: Name the recorded AC50 for Cn1cc(-c2nnc(C(=O)N3CCc4[nH]cnc4[C@@H]3c3nc4cc(F)cc(F)c4o3)o2)cn1 .
Response given: ≤ 0.5 µM
